Measured values drawn from PubChem BioAssay (NCI) for this set.

- Test system: HCT-116 colon
- ASSAY NAME: NCI-60 one-dose screen, 48 h (100 = growth as untreated, 0 = no growth, -100 = all killed)
- MEASUREMENT CONTEXT: 10 µM unless noted
The panel holds about 83,000 compounds, 20% with a hit somewhere; the sample as a whole holds those more often.
Response field label: string, one of 1 (yes) (growth strictly below 20%) or 0 (no).

[ask] Please state whether growth is below 20% for NS(=O)(=O)c1ccccc1NC(=O)Nc1nc2ccccc2s1
[reply] 0 (no)

[ask] Please state whether growth is below 20% for CSc1nc2ccccc2cc1/C=C1/C=C(c2ccccc2)NC1=O
[reply] 0 (no)

[ask] Please state whether growth is below 20% for O=c1c2cnn(-c3ccccc3)c2n2c(CN3CCOCC3)nnc2n1-c1ccccc1
[reply] 0 (no)

[ask] Please state whether growth is below 20% for CCN(C)S(=O)(=O)Nc1cccc(Nc2ncnc3cc(NC(=O)CCl)ccc23)c1Cl
[reply] 1 (yes)

[ask] Please state whether growth is below 20% for O=C(N/N=C/c1c(Cl)cccc1Cl)c1cccnc1Nc1cccc(C(F)(F)F)c1
[reply] 0 (no)

[ask] Please state whether growth is below 20% for Oc1c(I)cc(I)cc1CNCCN(Cc1ccccn1)Cc1ccccn1
[reply] 1 (yes)

[ask] Please state whether growth is below 20% for COc1ccc2c(c1)c(-c1nc(-c3c[nH]c4ccncc34)cs1)cn2C
[reply] 1 (yes)

[ask] Please state whether growth is below 20% for NC(N)=NCCCCCNc1noc(Cc2c[nH]c3cc(Br)ccc23)n1
[reply] 0 (no)

[ask] Please state whether growth is below 20% for CC(=O)n1nc(C(=O)OC(C)(C)c2ccccc2)c2ccccc21
[reply] 0 (no)

[ask] Please state whether growth is below 20% for COC(=O)c1nc(-c2ccccc2)oc1S(=O)(=O)Cc1ccccc1
[reply] 0 (no)

[ask] Please state whether growth is below 20% for NS(=O)(=O)c1ccc(N=Nc2c(O)n(Cc3ccccc3)c3ccc(Cl)cc23)cc1
[reply] 0 (no)

[ask] Please state whether growth is below 20% for O=S(=O)(NCCCNc1nccc(-c2c(-c3ccc(F)c(O)c3)nc3sccn23)n1)c1ccccc1
[reply] 0 (no)

[ask] Please state whether growth is below 20% for c1csc(-c2ccc(CNc3c4ccccc4nc4ccccc34)cc2)c1
[reply] 1 (yes)

[ask] Please state whether growth is below 20% for Cc1c[n+](Cc2ccc3ccccc3c2)cn1Cc1ccc2ccccc2c1
[reply] 0 (no)

[ask] Please state whether growth is below 20% for COC(=O)c1c2c(c(C)[n+]([O-])c1C)C(=O)C(NCc1cccc(OC)c1)=CC2=O
[reply] 1 (yes)

[ask] Please state whether growth is below 20% for O=C(O)CCN1C(=O)/C(=C/C(Cl)=C/c2ccccc2)SC1=S
[reply] 1 (yes)

[ask] Please state whether growth is below 20% for COC1=CC(c2ccc[nH]2)=N/C1=C\c1[nH]c(C)c(CC(=O)OCc2ccccc2)c1CCC(=O)OCc1ccccc1
[reply] 1 (yes)

[ask] Please state whether growth is below 20% for C/C(Cc1ccc(Cl)cc1)=C(\c1ccc(O)cc1)c1ccc(Cl)cc1
[reply] 0 (no)

[ask] Please state whether growth is below 20% for O=CN1N=C(c2cccc(Nc3ccnc4cc(Cl)ccc34)c2)CC1c1ccccc1 (configuration not stated)
[reply] 1 (yes)

[ask] Please state whether growth is below 20% for CCCCCOC(=O)c1c(C)[nH]c(/C=C2\N=C(c3ccc[nH]3)C=C2OC)c1C
[reply] 1 (yes)

[ask] Please state whether growth is below 20% for c1ccc(-c2oc(-c3ccccc3)c(CN3CCCCC3)c2CN2CCCCC2)cc1
[reply] 0 (no)

[ask] Please state whether growth is below 20% for CCOc1nc(-c2ccccc2)cc2c(O)c(C(=O)N/N=C/c3ccccc3)[nH]c(=O)c12
[reply] 0 (no)

[ask] Please state whether growth is below 20% for CCOC(=O)C1=C(C)NC(=O)NC1c1c(Cl)n(CCCl)c2ccccc12 (configuration not stated)
[reply] 0 (no)

[ask] Please state whether growth is below 20% for CCOC(=O)C#Cc1c(C(=O)OCC)nnn1Cc1ccc([N+](=O)[O-])cc1
[reply] 0 (no)

[ask] Please state whether growth is below 20% for Cc1ccc(-c2nc(N3CCCNCC3)c3oc(-c4ccccc4)nc3n2)cc1
[reply] 1 (yes)

[ask] Please state whether growth is below 20% for NC(=O)c1cccc(-n2ccc3cc(NC(=O)c4ccc(N5CCOCC5)c(C(F)(F)F)c4)ccc32)n1
[reply] 0 (no)

[ask] Please state whether growth is below 20% for CN(/C(N)=N/N=C/c1c2ccccc2cc2ccccc12)C1CCCCC1
[reply] 1 (yes)

====

Hi there, I'd appreciate the recorded growth for every entry that follows.
- Test system: RXF 393 renal
- ASSAY NAME: NCI-60 one-dose screen, 48 h (100 = growth as untreated, 0 = no growth, -100 = all killed)
- MEASUREMENT CONTEXT: 10 µM unless noted
Compounds without any hit were thinned out: in the full panel of roughly 83,000, 20% have a hit. Calls of active or inactive are those of the source. The calls were made as follows: active = growth percent below 10; inactive = the rest.

[ask] Value lookup for growth; key = Clc1cccc(Nc2ncnc3ccc(-c4cnc5[nH]ccc5c4)cc23)c1
[reply] 73.7% (inactive)

[ask] Value lookup for growth; key = COc1ccc2cc1Oc1ccc(cc1)C[C@H]1c3c(cc4c(c3Oc3cc5c(cc3OC)CCN(C)[C@@H]5C2)OCO4)CCN1C
[reply] -18.7% (active)

[ask] Value lookup for growth; key = COc1cc2cc(NCc3cccc(Cl)c3)nc(C)c2cc1OC
[reply] 40.3% (inactive)

[ask] Value lookup for growth; key = CN(C)CC1CCC(CN(C)C)C1=O (configuration not stated)
[reply] 123% (inactive)

[ask] Value lookup for growth; key = N=C(N)c1ccc(-c2ccc(-c3ccccc3)o2)cc1
[reply] -76.3% (active)

[ask] Value lookup for growth; key = COc1ccc(/C=C(\C#N)n2nnc3ccc(Cl)cc32)cc1
[reply] 48.7% (inactive)

[ask] Value lookup for growth; key = Cn1cc(C(=O)c2nc(-c3c[nH]c4ccccc34)no2)c2cc(F)ccc21
[reply] 89.9% (inactive)

[ask] Value lookup for growth; key = O=C1NC(=O)C(Cc2ccc(OCc3ccc(-c4ccc(Cl)cc4Cl)cc3)cc2)S1 (configuration not stated)
[reply] 76.1% (inactive)

[ask] Value lookup for growth; key = NC(=O)c1cc(I)ccc1NC(=O)/C=C/c1ccccc1
[reply] 19.3% (inactive)

[ask] Value lookup for growth; key = COc1ccc(-c2nn(-c3cccc(Cl)c3)cc2-c2cc(-c3ccc(Br)cc3)nc(N)n2)cc1
[reply] 111% (inactive)

[ask] Value lookup for growth; key = CN(C)c1ccc(-c2c(C#N)c(N)nn2C(=O)c2ccc(NC(=O)c3ccccn3)cc2)cc1
[reply] 117% (inactive)

[ask] Value lookup for growth; key = Cc1cc(=O)oc2cc(OCc3nn4c(Nc5nc6ccccc6s5)c(-c5ccccc5)nc4s3)ccc12
[reply] 102% (inactive)

[ask] Value lookup for growth; key = CN(C)CCNC(=O)c1cc2c3cc(Cl)ccc3[nH]c2c2ncccc12
[reply] 15.5% (inactive)

[ask] Value lookup for growth; key = C#CCOc1cccc(Nc2ncnc3ccc(NC(=O)C=C)cc23)c1
[reply] 2.49% (active)

[ask] Value lookup for growth; key = CCN1C(=S)N(c2ccccc2)C2C1NN=c1s/c(=C3\C(=O)N(C(C)C)c4ccccc43)c(=O)n12 (configuration not stated)
[reply] 107% (inactive)

[ask] Value lookup for growth; key = CCOC(=O)[C@@H]1CSC(CC)=C(C(=O)O)N1
[reply] 109% (inactive)

[ask] Value lookup for growth; key = Nc1ncnc2c1C(c1ccccc1)c1ccc3ccccc3c1O2 (configuration not stated)
[reply] 104% (inactive)

[ask] Value lookup for growth; key = COc1ccc2[nH]c(C(=O)N3CCN(C(=O)OCc4ccc5c(Cl)cc(Cl)c(O)c5n4)CC3)cc2c1
[reply] -92.9% (active)

[ask] Value lookup for growth; key = C=C1C(=O)O[C@H]2[C@H]1CC/C(Cn1cc(-c3ccccc3)nn1)=C\CC[C@@]1(C)O[C@@H]21
[reply] -74.1% (active)

[ask] Value lookup for growth; key = CN1CCc2nc3sc(C(N)=O)c(N)c3c(-c3cccs3)c2C1
[reply] -32% (active)

[ask] Value lookup for growth; key = Nc1cc(C(=O)NC[C@H]2CN(c3ccc(N4CCC(C(=O)O)CC4)cc3)C(=O)O2)ccc1Cl
[reply] 112% (inactive)

[ask] Value lookup for growth; key = Cc1cc(N2CCN(CCNc3ccnc4cc(Cl)ccc34)CC2)nc(N2CCOCC2)n1
[reply] 42.9% (inactive)

[ask] Value lookup for growth; key = COC(=O)c1nc(-c2ccc(C)cc2)oc1S(=O)(=O)c1cccc(OC)c1
[reply] 77% (inactive)

[ask] Value lookup for growth; key = O=C(/C=C/c1cccs1)Nc1ncc(Cc2ccccc2F)s1
[reply] -32.4% (active)

[ask] Value lookup for growth; key = CC(=O)c1c(C)nc(SCC(=O)Nc2cccc(O)c2)n1-c1ccc(Cl)cc1
[reply] 92% (inactive)

[ask] Value lookup for growth; key = C=C1C(=O)O[C@H]2[C@H]1CC/C(COC(=O)/C=C\C(=O)NCc1ccc(Cn3c(=O)sn(CCI)c3=O)cc1)=C\CC[C@@]1(C)O[C@@H]21
[reply] 11.6% (inactive)

[ask] Value lookup for growth; key = C#CCOC(=O)/C=C/c1cn(-c2ccccc2)nc1-c1ccc(OC)cc1
[reply] 73.7% (inactive)
